Across several studies, compounds have been characterized by their pIC50 on Platelet-derived growth factor receptor beta (Homo sapiens, UniProt P09619); a selection follows.
pIC50: −log10 of the molar value.
Measurement kind: pIC50

See these solved cases before continuing.
Cc1ccc(C(=O)N[C@H]2CCCC[C@@H]2O)cc1NCc1ccc(NC2CCOCC2)nc1; 6.89
CCC[C@@H](CO)NC(=O)c1ccc(C)c(NC(=O)c2cncc(-c3ccccc3)c2)c1; 7.40
COc1ccc(-c2ncc(CNc3cc(C(=O)N[C@H]4CCCC[C@@H]4O)ccc3C)cn2)cc1; 6.74
O=C(Nc1cc(C(=O)N[C@H]2CCCC[C@@H]2O)ccc1F)c1cncc(OCC2CC2)c1; 6.92

[I] O=C(N[C@H]1CCCC[C@@H]1O)c1ccc(F)c(/C=C(\F)c2cncc(F)c2)c1
[II] CCN(CC)CCCNC(=O)c1c(C(C)C)[nH]c(/C=C2\C(=O)Nc3ccc(Br)cc32)c1C(C)C
[III] COC(=O)CCCCS(=O)(CCCCC(=O)OC)=NC(=O)c1cnc(N)c(C#Cc2cccc(C(=O)Nc3ccc(Cl)c(C(F)(F)F)c3)c2)c1
[IV] Cc1ccc(F)c(NC(=O)c2cccc(Oc3ccnc4cc(C(=O)O)sc34)c2)c1
Order these by pIC50, descending, and give the full ranking. Would you mind listing the labels in the order asked for? III, I, IV, II
